Molecular target: MMP 13 (Homo sapiens, UniProt P45452)
Construct: recombinant human MMP-1-10, 12, 13 and 14 catalytic domains; purchased Biornol, USA
Assay: MMP Inhibitor Fluorimetric Profiling kit, MMP 13
Format: biochemical
Details: ne = no effect; read-out: MMP 13 inhibition IC50
Structures can show the parent of a compound that is named as a salt.
Property Label: IC50 (µM)
Give just the numeric value; µM need not be written.

# count of solved cases: 2
O=C(NO)c1cc2ccc3c(Br)c(CCN4CCNCC4)[se]c3c2oc1=O [Compound I-3, hydrochloride] = 4.95
O=C(NO)c1cc2ccc3c(Br)c(CN4CCNCC4)[se]c3c2oc1=O [Compound I-2, hydrochloride] = 6.27

Kindly review the next compound as well.
Please report the recorded IC50 for O=C(NO)c1cc2ccc3c(Br)c(CN4CCCNCC4)[se]c3c2oc1=O [Compound I-4, hydrochloride] .
4.74

Hey, just so you know, these numbers are from patent US12060368B2.
